Cited source for all entries: the supplement of paper PMC10567573

B1: TRIM39 (parent)
chain: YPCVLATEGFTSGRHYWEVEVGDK

- Variants of: B1
- Method: protein stability index of a GFP-peptide fusion (GPS, HEK-293T) (PSI 1-6); higher = more stable;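 further: lentivirally expressed fusions sorted by FACS into six bins by GFP to DsRed ratio, PSI derived from sequencing read proportions per bin multiplied by bin number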
- Protocol conditions: c terminus: a fixed tail appended
We use 2 as the dividing line for protein stability index: on or above the line is label 1, below is label 0.

Here are 3 variants together with their reported answers.
>>> qualitative_label("YPCVLQTEGFTSGRHYWEVEVGDK")
"label 1"
>>> qualitative_label("YPCVFATEGFTSGRHYWEVEVGDK")
"label 0"
>>> qualitative_label("YPCVLATEGFTSGRHYWEVPVGDK")
"label 0"

Enquiry: Could you please find out whether CPCVLATEGFTSGRHYWEVEVGDK has protein stability index that meets 2 or exceeds it?
Return: label 1

Enquiry: Could you do the same for YPCVLATEGFTSGRHYWEVEHGDK , please?
Return: label 0
